- experimentalTarget: MAP3K10 (human) (UniProt Q02779)
- Sequence (Q02779 whole entry, looked up): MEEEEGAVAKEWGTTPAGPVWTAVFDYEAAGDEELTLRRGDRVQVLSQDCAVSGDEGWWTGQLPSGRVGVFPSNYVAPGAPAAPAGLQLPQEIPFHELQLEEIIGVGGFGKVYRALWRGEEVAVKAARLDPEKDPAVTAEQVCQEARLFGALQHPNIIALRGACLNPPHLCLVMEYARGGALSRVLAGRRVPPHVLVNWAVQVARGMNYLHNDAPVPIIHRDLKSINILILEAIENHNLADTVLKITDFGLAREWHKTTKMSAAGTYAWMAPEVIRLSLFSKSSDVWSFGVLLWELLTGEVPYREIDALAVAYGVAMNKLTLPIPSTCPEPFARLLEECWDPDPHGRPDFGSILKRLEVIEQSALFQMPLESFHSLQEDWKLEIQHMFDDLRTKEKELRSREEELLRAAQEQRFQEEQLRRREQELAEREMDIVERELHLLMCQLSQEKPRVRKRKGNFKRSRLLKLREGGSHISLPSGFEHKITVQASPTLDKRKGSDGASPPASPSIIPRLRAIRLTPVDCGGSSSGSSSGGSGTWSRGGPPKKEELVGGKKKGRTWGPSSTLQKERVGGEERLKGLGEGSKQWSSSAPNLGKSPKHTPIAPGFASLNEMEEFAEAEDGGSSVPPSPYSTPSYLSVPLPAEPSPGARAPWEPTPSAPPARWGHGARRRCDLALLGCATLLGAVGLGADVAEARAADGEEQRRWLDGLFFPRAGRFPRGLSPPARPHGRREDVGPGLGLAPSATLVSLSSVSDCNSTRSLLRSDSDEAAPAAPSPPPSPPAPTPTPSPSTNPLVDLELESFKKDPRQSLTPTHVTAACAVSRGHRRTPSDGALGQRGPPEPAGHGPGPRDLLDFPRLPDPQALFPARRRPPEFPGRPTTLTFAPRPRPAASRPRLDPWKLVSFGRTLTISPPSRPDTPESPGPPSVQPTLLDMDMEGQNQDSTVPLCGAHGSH
- runDescription: radiometric filter-binding kinase assay, Kinase HotSpot
- testParameters: compound 0.5 µM; ATP 10 µM
# residual activity per entry
assayMetric: residual activity (%)

{"compound": "CSc1nc(-c2ccc(F)cc2)c(-c2ccnc(NC(C)c3ccccc3)c2)[nH]1 (stereo unspecified)", "measValue": 90.6}
{"compound": "Nc1nc(Nc2ccc(S(N)(=O)=O)cc2)nn1C(=S)Nc1c(F)cccc1F", "measValue": 3}
{"compound": "COc1cc2ncnc(Nc3ccc(F)c(Cl)c3)c2cc1OCCCN1CCOCC1", "measValue": 109}
{"compound": "CS(=O)c1ccc(-c2nc(-c3ccc(F)cc3)c(-c3ccncc3)[nH]2)cc1 (stereo unspecified)", "measValue": 104}
{"compound": "CC(C)n1cnc2c(Nc3cccc(Cl)c3)nc(NCCO)nc21", "measValue": 90.3}
{"compound": "Nc1nc(Nc2ccc(S(N)(=O)=O)cc2)nn1C(=O)c1c(F)cccc1F", "measValue": 77.8}
{"compound": "Cc1ccc(NC(=O)c2ccc(CN3CCN(C)CC3)cc2)cc1Nc1nc(-c2cccnc2)cs1", "measValue": 102}
{"compound": "NC(=O)c1ccc(N(C(N)=O)c2c(F)cccc2F)nc1-c1ccc(F)cc1F", "measValue": 104}
{"compound": "CC(C)[C@H](CO)Nc1nc(Nc2cccc(Cl)c2)c2ncn(C(C)C)c2n1", "measValue": 98}
{"compound": "O=C1Nc2ccccc2/C1=C\\c1c(Cl)[nH]c2ccccc12", "measValue": 94.7}
{"compound": "Cc1cc2ncc(-c3ccccc3)nc2cc1C", "measValue": 97.8}
{"compound": "COc1cc2nccc(Oc3ccc(NC(=S)NC(=O)c4ccccc4C)cc3)c2cc1OC", "measValue": 91}
{"compound": "CCN1/C(=C/C(C)=O)Sc2ccc(OC)cc21", "measValue": 95}
{"compound": "CC(C)(C)c1nc2c3ccc(F)cc3c3c(=O)[nH]ccc3c2[nH]1", "measValue": 89.7}
{"compound": "O=c1cc(N2CCNCC2)oc2c(-c3ccccc3)cccc12", "measValue": 87.9}
{"compound": "Oc1ccc(-c2nc(-c3ccc(F)cc3)c(-c3ccncc3)[nH]2)cc1", "measValue": 32.8}
{"compound": "Clc1ccc(Nc2nnc(Cc3ccncc3)c3ccccc23)cc1", "measValue": 110}
{"compound": "O=C(NC(NC(=S)Nc1ccc(F)c([N+](=O)[O-])c1)C(Cl)(Cl)Cl)C(c1ccccc1)c1ccccc1 (stereo unspecified)", "measValue": 98.9}
{"compound": "C#Cc1cccc(Nc2ncnc3cc(OCCOC)c(OCCOC)cc23)c1", "measValue": 108}
{"compound": "O=c1cc(-c2cccc3c2Sc2ccccc2S3)oc(N2CCOCC2)c1", "measValue": 95.9}
{"compound": "Nc1n[nH]c2nnc(-c3c(-c4ccccc4)nn4ccccc34)cc12", "measValue": 90.7}

* * *

# residual activity per entry
- experimentalTarget: STK24 (human) (UniProt Q9Y6E0)
- Sequence (Q9Y6E0 whole entry, looked up): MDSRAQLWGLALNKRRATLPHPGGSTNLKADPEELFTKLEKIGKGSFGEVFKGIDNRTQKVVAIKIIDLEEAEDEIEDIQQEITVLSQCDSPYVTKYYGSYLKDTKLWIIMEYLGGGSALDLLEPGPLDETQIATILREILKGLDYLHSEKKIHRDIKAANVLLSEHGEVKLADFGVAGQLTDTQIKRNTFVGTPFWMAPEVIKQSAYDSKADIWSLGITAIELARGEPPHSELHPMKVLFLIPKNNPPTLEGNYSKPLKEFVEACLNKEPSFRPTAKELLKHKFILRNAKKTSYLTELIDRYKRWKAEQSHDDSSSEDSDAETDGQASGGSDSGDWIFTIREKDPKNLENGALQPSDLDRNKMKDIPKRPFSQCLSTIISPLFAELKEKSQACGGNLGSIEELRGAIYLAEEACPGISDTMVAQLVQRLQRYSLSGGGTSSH
- runDescription: radiometric filter-binding kinase assay, Kinase HotSpot
- testParameters: compound 0.5 µM; ATP 10 µM
assayMetric: residual activity (%)

{"molecule": "O=C(NC(NC(=S)Nc1ccc(F)c([N+](=O)[O-])c1)C(Cl)(Cl)Cl)C(c1ccccc1)c1ccccc1 (centres undefined)", "measValue": 92.8}
{"molecule": "CC(C)(C)c1nc2c3ccc(F)cc3c3c(=O)[nH]ccc3c2[nH]1", "measValue": 82.4}
{"molecule": "CCN1/C(=C/C(C)=O)Sc2ccc(OC)cc21", "measValue": 82.2}
{"molecule": "C#Cc1cccc(Nc2ncnc3cc(OCCOC)c(OCCOC)cc23)c1", "measValue": 115}

* * *

- experimentalTarget: DMPK (human) (UniProt Q09013)
- Sequence (Q09013 whole entry, looked up): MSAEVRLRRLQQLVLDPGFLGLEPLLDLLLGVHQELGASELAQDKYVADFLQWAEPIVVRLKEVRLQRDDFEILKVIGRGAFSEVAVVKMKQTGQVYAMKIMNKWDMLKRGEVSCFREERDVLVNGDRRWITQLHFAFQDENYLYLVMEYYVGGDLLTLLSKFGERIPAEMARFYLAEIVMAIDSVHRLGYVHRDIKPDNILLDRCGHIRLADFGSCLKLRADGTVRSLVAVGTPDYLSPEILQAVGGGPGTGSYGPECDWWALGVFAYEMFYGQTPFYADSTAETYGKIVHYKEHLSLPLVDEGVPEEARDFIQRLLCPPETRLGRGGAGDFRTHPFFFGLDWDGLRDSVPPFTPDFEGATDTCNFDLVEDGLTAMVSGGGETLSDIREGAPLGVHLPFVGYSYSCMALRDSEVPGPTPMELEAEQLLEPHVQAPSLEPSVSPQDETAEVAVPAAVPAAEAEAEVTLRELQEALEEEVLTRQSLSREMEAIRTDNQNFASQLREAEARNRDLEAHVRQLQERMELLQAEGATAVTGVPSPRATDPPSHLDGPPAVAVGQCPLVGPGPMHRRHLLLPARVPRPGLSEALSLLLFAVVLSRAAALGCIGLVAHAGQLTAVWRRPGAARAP
- runDescription: radiometric filter-binding kinase assay, Kinase HotSpot
- testParameters: compound 0.5 µM; ATP 10 µM

{"compound": "COc1cc2nccc(Oc3ccc(NC(=S)NC(=O)c4ccccc4C)cc3)c2cc1OC", "residual activity, %": 102}
{"compound": "Nc1n[nH]c2nnc(-c3c(-c4ccccc4)nn4ccccc34)cc12", "residual activity, %": 103}
{"compound": "Nc1nc(Nc2ccc(S(N)(=O)=O)cc2)nn1C(=S)Nc1c(F)cccc1F", "residual activity, %": 78.4}
{"compound": "CSc1nc(-c2ccc(F)cc2)c(-c2ccnc(NC(C)c3ccccc3)c2)[nH]1 (centres undefined)", "residual activity, %": 80}

* * *

# residual activity per entry
- experimentalTarget: SRPK1 (human)
- runDescription: radiometric filter-binding kinase assay, Kinase HotSpot
- testParameters: compound 0.5 µM; ATP 10 µM
assayMetric: residual activity (%)

{"compound": "O=C1Nc2ccccc2/C1=C\\c1c(Cl)[nH]c2ccccc12", "scaleUnit": "%", "measValue": 94.2}
{"compound": "Nc1n[nH]c2nnc(-c3c(-c4ccccc4)nn4ccccc34)cc12", "scaleUnit": "%", "measValue": 83.7}
{"compound": "COc1cc2nccc(Oc3ccc(NC(=S)NC(=O)c4ccccc4C)cc3)c2cc1OC", "scaleUnit": "%", "measValue": 98}
{"compound": "CS(=O)c1ccc(-c2nc(-c3ccc(F)cc3)c(-c3ccncc3)[nH]2)cc1 (centres undefined)", "scaleUnit": "%", "measValue": 99.5}
{"compound": "CSc1nc(-c2ccc(F)cc2)c(-c2ccnc(NC(C)c3ccccc3)c2)[nH]1 (centres undefined)", "scaleUnit": "%", "measValue": 106}
{"compound": "CC(C)(C)c1nc2c3ccc(F)cc3c3c(=O)[nH]ccc3c2[nH]1", "scaleUnit": "%", "measValue": 115}
{"compound": "CCCNC(=O)Nc1ccc(Oc2ncnc3cc(OC)c(OC)cc23)cc1Cl", "scaleUnit": "%", "measValue": 102}
{"compound": "Nc1nc(Nc2ccc(S(N)(=O)=O)cc2)nn1C(=O)c1c(F)cccc1F", "scaleUnit": "%", "measValue": 86.4}
{"compound": "CC(C)n1cnc2c(Nc3cccc(Cl)c3)nc(NCCO)nc21", "scaleUnit": "%", "measValue": 61.7}

* * *

- experimentalTarget: JAK1 JH1 catalytic (human) (UniProt P23458)
- Sequence (P23458 whole entry, looked up): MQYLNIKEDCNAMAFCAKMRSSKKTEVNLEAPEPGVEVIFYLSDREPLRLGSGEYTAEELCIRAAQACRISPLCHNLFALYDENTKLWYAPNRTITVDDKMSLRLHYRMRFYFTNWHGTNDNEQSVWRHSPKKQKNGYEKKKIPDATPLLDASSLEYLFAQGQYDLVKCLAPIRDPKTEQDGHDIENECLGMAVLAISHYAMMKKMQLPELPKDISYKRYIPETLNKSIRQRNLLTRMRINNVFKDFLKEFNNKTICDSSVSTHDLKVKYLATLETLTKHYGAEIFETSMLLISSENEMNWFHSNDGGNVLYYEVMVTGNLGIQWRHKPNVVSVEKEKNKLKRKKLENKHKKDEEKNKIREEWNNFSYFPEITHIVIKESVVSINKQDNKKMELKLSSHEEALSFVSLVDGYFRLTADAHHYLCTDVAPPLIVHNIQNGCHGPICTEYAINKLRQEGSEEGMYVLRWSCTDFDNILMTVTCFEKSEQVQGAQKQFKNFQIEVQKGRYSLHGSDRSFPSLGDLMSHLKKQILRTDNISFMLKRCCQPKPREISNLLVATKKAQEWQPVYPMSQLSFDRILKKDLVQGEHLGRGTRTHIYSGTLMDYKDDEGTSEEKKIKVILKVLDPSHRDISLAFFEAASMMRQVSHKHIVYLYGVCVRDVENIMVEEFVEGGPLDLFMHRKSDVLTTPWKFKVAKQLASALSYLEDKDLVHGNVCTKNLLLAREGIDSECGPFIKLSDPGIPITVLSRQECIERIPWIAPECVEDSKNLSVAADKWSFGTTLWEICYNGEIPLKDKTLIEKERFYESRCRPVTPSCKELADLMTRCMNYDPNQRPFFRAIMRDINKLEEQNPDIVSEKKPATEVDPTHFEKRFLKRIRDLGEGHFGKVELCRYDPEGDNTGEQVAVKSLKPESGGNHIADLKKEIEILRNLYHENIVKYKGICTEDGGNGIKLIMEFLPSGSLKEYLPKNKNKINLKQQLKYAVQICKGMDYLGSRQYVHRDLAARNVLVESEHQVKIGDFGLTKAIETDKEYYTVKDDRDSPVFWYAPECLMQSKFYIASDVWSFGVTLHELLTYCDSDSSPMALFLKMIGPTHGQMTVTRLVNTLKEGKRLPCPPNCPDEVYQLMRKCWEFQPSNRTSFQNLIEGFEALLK
- runDescription: radiometric filter-binding kinase assay, Kinase HotSpot
- testParameters: compound 0.5 µM; ATP 10 µM
# residual activity per entry
assayMetric: residual activity (%)

{"compound": "CC(C)(C)c1nc2c3ccc(F)cc3c3c(=O)[nH]ccc3c2[nH]1", "scaleUnit": "%", "measValue": 2.54}
{"compound": "O=C(NC(NC(=S)Nc1ccc(F)c([N+](=O)[O-])c1)C(Cl)(Cl)Cl)C(c1ccccc1)c1ccccc1 (centres undefined)", "scaleUnit": "%", "measValue": 106}
{"compound": "C#Cc1cccc(Nc2ncnc3cc(OCCOC)c(OCCOC)cc23)c1", "scaleUnit": "%", "measValue": 91.2}
{"compound": "COc1cc2nccc(Oc3ccc(NC(=S)NC(=O)c4ccccc4C)cc3)c2cc1OC", "scaleUnit": "%", "measValue": 96.7}

* * *

# residual activity per entry
- experimentalTarget: CDK5 CDK5R1 p35 (human) (UniProt Q00535+Q15078)
- runDescription: radiometric filter-binding kinase assay, Kinase HotSpot
- testParameters: compound 0.5 µM; ATP 10 µM

{"cpdSmiles": "C#Cc1cccc(Nc2ncnc3cc(OCCOC)c(OCCOC)cc23)c1", "residual activity / %": 108}
{"cpdSmiles": "Cc1cc(Nc2cc(N3CCN(C)CC3)nc(Sc3ccc(NC(=O)C4CC4)cc3)n2)[nH]n1", "residual activity / %": 100}
{"cpdSmiles": "Clc1ccc(Nc2nnc(Cc3ccncc3)c3ccccc23)cc1", "residual activity / %": 97.2}
{"cpdSmiles": "CCN1/C(=C/C(C)=O)Sc2ccc(OC)cc21", "residual activity / %": 91.1}
{"cpdSmiles": "Nc1nc(Nc2ccc(S(N)(=O)=O)cc2)nn1C(=S)Nc1c(F)cccc1F", "residual activity / %": 11.3}

* * *

- experimentalTarget: UniProt:Q9NQU5
- Sequence (Q9NQU5 whole entry, looked up): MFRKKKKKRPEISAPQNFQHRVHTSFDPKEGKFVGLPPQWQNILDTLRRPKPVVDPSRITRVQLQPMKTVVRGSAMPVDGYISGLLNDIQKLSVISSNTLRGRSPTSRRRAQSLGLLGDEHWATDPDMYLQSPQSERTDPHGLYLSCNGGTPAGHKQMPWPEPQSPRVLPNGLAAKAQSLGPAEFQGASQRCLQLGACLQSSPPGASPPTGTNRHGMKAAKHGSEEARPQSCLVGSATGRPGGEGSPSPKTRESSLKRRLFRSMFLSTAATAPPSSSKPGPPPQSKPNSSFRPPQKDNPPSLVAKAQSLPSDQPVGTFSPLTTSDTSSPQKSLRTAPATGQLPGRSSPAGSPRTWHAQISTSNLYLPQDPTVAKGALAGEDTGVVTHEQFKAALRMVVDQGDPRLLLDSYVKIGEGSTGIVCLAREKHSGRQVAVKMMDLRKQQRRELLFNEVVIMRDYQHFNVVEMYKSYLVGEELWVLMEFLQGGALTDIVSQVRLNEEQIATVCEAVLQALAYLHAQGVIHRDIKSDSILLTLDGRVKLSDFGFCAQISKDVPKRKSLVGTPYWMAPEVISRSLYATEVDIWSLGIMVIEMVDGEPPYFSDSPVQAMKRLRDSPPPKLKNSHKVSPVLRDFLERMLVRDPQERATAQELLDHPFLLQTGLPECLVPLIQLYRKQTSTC
- runDescription: radiometric filter-binding kinase assay, Kinase HotSpot
- testParameters: compound 0.5 µM; ATP 10 µM
assayMetric: residual activity (%)

{"molecule": "NC(=O)c1ccc(N(C(N)=O)c2c(F)cccc2F)nc1-c1ccc(F)cc1F", "assayMetric": "residual activity", "scaleUnit": "%", "measValue": 103}
{"molecule": "CSc1nc(-c2ccc(F)cc2)c(-c2ccnc(NC(C)c3ccccc3)c2)[nH]1 (configuration not stated)", "assayMetric": "residual activity", "scaleUnit": "%", "measValue": 93.5}
{"molecule": "Oc1ccc(-c2nc(-c3ccc(F)cc3)c(-c3ccncc3)[nH]2)cc1", "assayMetric": "residual activity", "scaleUnit": "%", "measValue": 104}
{"molecule": "CC(C)[C@H](CO)Nc1nc(Nc2cccc(Cl)c2)c2ncn(C(C)C)c2n1", "assayMetric": "residual activity", "scaleUnit": "%", "measValue": 111}
{"molecule": "CCN1/C(=C/C(C)=O)Sc2ccc(OC)cc21", "assayMetric": "residual activity", "scaleUnit": "%", "measValue": 95.6}
{"molecule": "COc1cc2ncnc(Nc3ccc(F)c(Cl)c3)c2cc1OCCCN1CCOCC1", "assayMetric": "residual activity", "scaleUnit": "%", "measValue": 105}
{"molecule": "Nc1n[nH]c2nnc(-c3c(-c4ccccc4)nn4ccccc34)cc12", "assayMetric": "residual activity", "scaleUnit": "%", "measValue": 96.4}
